Reference source for all entries: ChEMBL document CHEMBL3991601

- system: Bifunctional phosphoribosylaminoimidazole carboxylase/phosphoribosylaminoimidazole succinocarboxamide synthetase (Homo sapiens, UniProt P22234); also: in the data inactive means no Kd found up to 30 µM
- Sequence (P22234 whole entry): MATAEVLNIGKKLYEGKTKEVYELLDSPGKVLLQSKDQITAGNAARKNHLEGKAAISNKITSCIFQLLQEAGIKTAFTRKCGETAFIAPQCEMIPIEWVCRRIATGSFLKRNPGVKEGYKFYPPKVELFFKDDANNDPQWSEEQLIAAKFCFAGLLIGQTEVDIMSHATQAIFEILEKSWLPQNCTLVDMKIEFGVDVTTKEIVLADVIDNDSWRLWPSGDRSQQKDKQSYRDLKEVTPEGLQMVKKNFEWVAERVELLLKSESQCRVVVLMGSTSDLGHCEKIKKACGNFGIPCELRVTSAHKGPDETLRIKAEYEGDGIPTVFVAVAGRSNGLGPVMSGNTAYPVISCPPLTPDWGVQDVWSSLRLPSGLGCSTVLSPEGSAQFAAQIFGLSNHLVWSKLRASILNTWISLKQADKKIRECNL
The source made the active and inactive calls.
measuredMetric: Kd

Completed entries (count: 5):
# molecule, Kd
data = [
    ("CO[C@H]1C[C@@H]2CC[C@@H](C)[C@@](O)(O2)C(=O)C(=O)N2CCCC[C@H]2C(=O)O[C@H]([C@H](C)C[C@@H]2CC[C@@H](OCCO)[C@H](OC)C2)CC(=O)[C@H](C)/C=C(\\C)[C@@H](O)[C@@H](OC)C(=O)[C@H](C)C[C@H](C)/C=C/C=C/C=C/1C", "> 30 µM (inactive)"),
    ("Cc1cc(-c2cc(O)ccc2Cl)cc2nnc(Nc3ccc(OCCN4CCCC4)cc3)nc12", "> 30 µM (inactive)"),
    ("COc1cc2nccc(Oc3ccc(NC(=O)Nc4cc(C)on4)c(Cl)c3)c2cc1OC", "> 30 µM (inactive)"),
    ("COC(=O)N[C@@H](C)CNc1nccc(-c2cn(C(C)C)nc2-c2cc(Cl)cc(NS(C)(=O)=O)c2F)n1", "> 30 µM (inactive)"),
    ("CN1N=C(N)c2cn([C@@H]3O[C@H](COP(=O)(O)O)[C@@H](O)[C@H]3O)c3ncnc1c23 [TRICIRIBINE PHOSPHATE]", "> 30 µM (inactive)"),
]

Moving on to another molecule below.
Recorded Kd for `CCCS(=O)(=O)Nc1ccc(F)c(C(=O)c2c[nH]c3ncc(-c4ccc(Cl)cc4)cc23)c1F` , please? > 30 µM (inactive)
